The reader will find reported switch fluorescence ratio values listed item by item below.
Test system: ATP;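 further: ATP exposure 15 min at 22 °C before imaging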
METHOD DESCRIPTION: switch fluorescence ratio, 500 uM ATP over buffer (Cy3 cluster intensity, sum of 5 cycles each) (fold (ratio)); higher = stronger signal-on switching upon ATP binding; sequences stand for … in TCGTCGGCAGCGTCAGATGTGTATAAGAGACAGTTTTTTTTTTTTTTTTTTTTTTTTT…TC
CONDITION LABEL: aptamer strand: ATP DNA aptamer (quencher-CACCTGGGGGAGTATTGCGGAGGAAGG + anchor), 100 nM annealed; ATP concentration: 500 uM
Output: the number by itself.

Guide cases for switch fluorescence ratio, answers given:
RECORD SEQUENCE: ATACGAAGGC
switch fluorescence ratio: 0.985
--
RECORD SEQUENCE: CAAGATGTTG
switch fluorescence ratio: 0.987

Answer with the recorded switch fluorescence ratio of `ATTACAAATT` only.
1.03

Please look at this sequence and report its switch fluorescence ratio: `TAAAGTGATT`
0.988

Complete the entry with switch fluorescence ratio for `GCTGTAACTG`
1.08

# return recorded switch fluorescence ratio for input `TCCGGATTTT`
1.01

Write down switch fluorescence ratio measured for item `TAATGATTTC`
0.992

Note down switch fluorescence ratio recorded for `GGCGGTAAAG`
0.992

Note down switch fluorescence ratio recorded for `CTCTACTCAA`
1.37

Provide only the value of recorded switch fluorescence ratio for `AAGGACGCCT`
1.03

Specify reported switch fluorescence ratio for the sequence shown: `TCCAGCTAAA`
1.09

Answer with the recorded switch fluorescence ratio for the sequence listed here: `TCGTTTGTAT`
0.972

Return the recorded switch fluorescence ratio value; entry: `TAGGGGAAGG`
1.03

Give recorded switch fluorescence ratio. `TCTCGTCAGC`
1.09

Please look at this sequence and report its switch fluorescence ratio: `AATTCTTGGG`
0.981

For the sequence `GTATCATGCC` , report switch fluorescence ratio.
1.01

Return reported switch fluorescence ratio. Input sequence: `GGGGTGGGGG`
1.01

Supply switch fluorescence ratio value. Item: `TATGCGTCGA`
0.979

Report switch fluorescence ratio for `CAGGACGGGG`
1.01

Name the recorded switch fluorescence ratio of the item `CAGCGTAGGT` in your answer.
1.02

Give switch fluorescence ratio for the following sequence: `ATTTCAAATT`
1.02

For `GGACTTGGGT` , write its switch fluorescence ratio.
0.97

Entry `TCCGGCGGCC` needs its switch fluorescence ratio filled in; supply it.
1.09

Give the reported switch fluorescence ratio for this sequence. `CATTAGGGCT`
0.978

Item `GTTTTGGAGT` : provide switch fluorescence ratio
1.05
